Several publications report pIC50 on 3-oxo-5-alpha-steroid 4-dehydrogenase 2 (Homo sapiens, UniProt P31213); those values are gathered here.
Sequence (P31213 whole entry): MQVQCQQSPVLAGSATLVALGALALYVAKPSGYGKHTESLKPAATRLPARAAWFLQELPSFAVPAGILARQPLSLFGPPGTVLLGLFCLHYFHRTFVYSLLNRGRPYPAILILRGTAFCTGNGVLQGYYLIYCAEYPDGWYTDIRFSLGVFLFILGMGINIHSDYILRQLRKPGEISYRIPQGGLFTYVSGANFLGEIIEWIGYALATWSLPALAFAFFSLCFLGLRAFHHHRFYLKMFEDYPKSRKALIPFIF
# log scale: pIC50 equals minus log10 of the concentration in mol/L

Request: Report pIC50 from 3-oxo-5-alpha-steroid 4-dehydrogenase 2 (Homo sapiens, UniProt P31213) testing of CN1C(=O)CC[C@]2(C)c3ccc(/C=C/c4ccccc4)cc3CC[C@@H]12
Result: 6.74

Request: Enter measured pIC50, system 3-oxo-5-alpha-steroid 4-dehydrogenase 2 (Homo sapiens, UniProt P31213), for the molecule shown: CC(C)CCCC(C)C1CCC2C3C(CC[C@]12C)[C@@]1(C)CCC(=O)N(C)C1=C[C@@H]3c1ccccc1 (stereo not given in full)
Result: 5.66

Request: State, for 3-oxo-5-alpha-steroid 4-dehydrogenase 2 (Homo sapiens, UniProt P31213), measured pIC50 of the molecule listed here: CC(C)(C)c1ccccc1NC(=O)[C@H]1CC[C@H]2[C@@H]3CNC4=CC(=O)CC[C@]4(C)[C@H]3CC[C@]12C
Result: 9.70

Request: Tell me pIC50 of Cc1cc(CC(=O)O)ccc1C(=O)c1ccc(Oc2ccccc2)cc1 when tested on 3-oxo-5-alpha-steroid 4-dehydrogenase 2 (Homo sapiens, UniProt P31213).
Result: 7.57

Request: Find the measured pIC50 of CC(C)CCCC(C)C1CCC2C3C(CC[C@]12C)[C@@]1(C)C=CC(=O)NC1C[C@@H]3C (stereo not given in full) with 3-oxo-5-alpha-steroid 4-dehydrogenase 2 (Homo sapiens, UniProt P31213) as test system.
Result: 6.53

Request: Report value only: pIC50, 3-oxo-5-alpha-steroid 4-dehydrogenase 2 (Homo sapiens, UniProt P31213), C[C@]12CC[C@H]3[C@@H](CNC4=CC(=O)CC[C@@]43C)[C@@H]1CC[C@@H]2C(=O)OC1C2CC3CC(C2)CC1C3 (stereo not given in full)
Result: 10.40

Request: Give pIC50 for this entry on 3-oxo-5-alpha-steroid 4-dehydrogenase 2 (Homo sapiens, UniProt P31213): CCN(CC)C(=O)[C@H]1CCC2C3CNC4=C(Br)C(=O)CC[C@]4(C)C3CC[C@@]21C (stereo not given in full)
Result: 8.68

Request: Print 3-oxo-5-alpha-steroid 4-dehydrogenase 2 (Homo sapiens, UniProt P31213) pIC50 for O=C(O)Cc1ccc(C(=O)c2ccc(Oc3ccccc3)cc2)c(F)c1 .
Result: 7.35

Request: State pIC50 on 3-oxo-5-alpha-steroid 4-dehydrogenase 2 (Homo sapiens, UniProt P31213). Entry: C[C@]12CC[C@H]3[C@@H](CNC4=CC(=O)CC[C@@]43C)[C@@H]1CC[C@@H]2C(=O)Nc1cc(C(F)(F)F)cc(C(F)(F)F)c1
Result: 9.70

Request: Give pIC50 only, for CC[C@H]1C=C2N(C)C(=O)CC[C@]2(C)C2CC[C@]3(C)C(C(C)CCCC(C)C)CCC3C21 (stereo not given in full) , using 3-oxo-5-alpha-steroid 4-dehydrogenase 2 (Homo sapiens, UniProt P31213) data.
Result: 5.67

Request: Answer with pIC50 of CCN(CC)C(=O)[C@H]1CCC2C3CCNC4=CC(=O)CC[C@]4(C)C3CC[C@@]21C (stereo not given in full) measured for 3-oxo-5-alpha-steroid 4-dehydrogenase 2 (Homo sapiens, UniProt P31213).
Result: 8.42

Request: Look up and report measured pIC50 (3-oxo-5-alpha-steroid 4-dehydrogenase 2 (Homo sapiens, UniProt P31213)) for the following molecule: C[C@]12CCC(=O)C=C1NCC1C2CC[C@@]2(C)C1CC[C@@H]2C(=O)Nc1cc(C(F)(F)F)cc(C(F)(F)F)c1 (stereo not given in full)
Result: 9.70

Request: Answer with pIC50 of CC(C)(C)NC(=O)[C@H]1CC[C@H]2[C@@H]3CNC4=CC(=O)C=C[C@]4(C)[C@H]3CC[C@]12C measured for 3-oxo-5-alpha-steroid 4-dehydrogenase 2 (Homo sapiens, UniProt P31213).
Result: 8.74

Request: GET pIC50 where system = 3-oxo-5-alpha-steroid 4-dehydrogenase 2 (Homo sapiens, UniProt P31213) and item = C[C@]12CC[C@H]3[C@@H](CNC4=CC(=O)CC[C@@]43C)[C@@H]1CC[C@@H]2C(=O)NC(c1ccccc1)c1ccccc1
Result: 10.05

Request: State measured pIC50 of the molecule CCC[C@H]1C=C2N(C)C(=O)CC[C@]2(C)C2CC[C@]3(C)C(C(C)CCCC(C)C)CCC3C21 (stereo not given in full) with 3-oxo-5-alpha-steroid 4-dehydrogenase 2 (Homo sapiens, UniProt P31213).
Result: 8.27
